Please respond with reported Ratio Ki for every item in the list.
- method: Selectivity ratio of Ki for mu opioid receptor in mouse whole brain devoid of cerebellum to Ki for kappa opioid receptor in guinea pig cerebellum
- Format: tissue-based

Prompt: What value of Ratio Ki has been recorded for this entry: O=C(C[C@@H]1N[C@@]23CC[C@]1(O)[C@@H]1Oc4c(O)ccc5c4[C@]12CCN(CC1CC1)[C@@H]3C5)NCc1ccccc1
Completion: 1.42

Prompt: Using the record for O=C(Nc1ccccc1)[C@H]1N(CC(F)(F)F)[C@@]23CC[C@]1(O)[C@@H]1Oc4c(O)ccc5c4[C@@]12CCN(CC1CC1)[C@@H]3C5 , report its Ratio Ki.
Completion: 1.5

Prompt: Would you mind telling me what Ratio Ki value was observed for O=C(C[C@@H]1N(CC2CC2)[C@@]23CC[C@]1(O)[C@@H]1Oc4c(O)ccc5c4[C@]12CCN(CC1CC1)[C@@H]3C5)NCc1ccccc1 ?
Completion: 0.71

Prompt: Which Ratio Ki reading was recorded for the molecule O=C(Nc1ccccc1)[C@@H]1N[C@@]23CC[C@]1(O)[C@@H]1Oc4c(O)ccc5c4[C@@]12CCN(CC1CC1)[C@@H]3C5 ?
Completion: 0.67

Prompt: For CC(=O)N1[C@H](CC(=O)Nc2ccccc2)[C@]2(O)CC[C@]13[C@H]1Cc4ccc(O)c5c4[C@]3(CCN1CC1CC1)[C@H]2O5 , what is its reported Ratio Ki?
Completion: 0.11

Prompt: Report Ratio Ki for CN1[C@@H](CC(=O)Nc2ccccc2)[C@]2(O)CC[C@]13[C@H]1Cc4ccc(O)c5c4[C@]3(CCN1CC1CC1)[C@H]2O5 please.
Completion: 2.46

Prompt: Which Ratio Ki is reported for this molecule? CC(=O)N1[C@@H](CC(=O)NCc2ccccc2)[C@]2(O)CC[C@]13[C@H]1Cc4ccc(O)c5c4[C@]3(CCN1CC1CC1)[C@H]2O5
Completion: 0.44

Prompt: What Ratio Ki value was documented for this molecule, CC(=O)N1[C@@H](C(=O)Nc2ccccc2)[C@]2(O)CC[C@]13[C@H]1Cc4ccc(O)c5c4[C@@]3(CCN1CC1CC1)[C@H]2O5 ?
Completion: 0.18

Prompt: Which Ratio Ki value is on record for O=C(Nc1ccccc1)[C@H]1O[C@@]23CC[C@]1(O)[C@@H]1Oc4c(O)ccc5c4[C@@]12CCN(CC1CC1)[C@@H]3C5 ?
Completion: 2.32

Prompt: Fill in the blank: the reported Ratio Ki of O=C(C[C@@H]1N(CC2CC2)[C@@]23CC[C@]1(O)[C@@H]1Oc4c(O)ccc5c4[C@]12CCN(CC1CC1)[C@@H]3C5)Nc1ccccc1 is ____.
Completion: 0.24

Prompt: // query Ratio Ki value for entry O=C(C[C@H]1N[C@@]23CC[C@]1(O)[C@@H]1Oc4c(O)ccc5c4[C@]12CCN(CC1CC1)[C@@H]3C5)Nc1ccccc1
Completion: 0.34

Prompt: Any idea what its Ratio Ki is? The molecule is O=C(C[C@@H]1N[C@@]23CC[C@]1(O)[C@@H]1Oc4c(O)ccc5c4[C@]12CCN(CC1CC1)[C@@H]3C5)Nc1ccccc1
Completion: 0.71

Prompt: Please report the recorded Ratio Ki for O=C(Nc1ccccc1)[C@H]1N[C@@]23CC[C@]1(O)[C@@H]1Oc4c(O)ccc5c4[C@@]12CCN(CC1CC1)[C@@H]3C5 .
Completion: 1.07

Prompt: State the recorded Ratio Ki for this entry: O=C(C[C@H]1N(CC2CC2)[C@@]23CC[C@]1(O)[C@@H]1Oc4c(O)ccc5c4[C@]12CCN(CC1CC1)[C@@H]3C5)NCc1ccccc1
Completion: 1.3

Prompt: Quick one: Ratio Ki for CN1[C@@H](C(=O)Nc2ccccc2)[C@]2(O)CC[C@]13[C@H]1Cc4ccc(O)c5c4[C@@]3(CCN1CC1CC1)[C@H]2O5 ?
Completion: 0.69

Prompt: Need Ratio Ki, item CN1[C@H](CC(=O)NCc2ccccc2)[C@]2(O)CC[C@]13[C@H]1Cc4ccc(O)c5c4[C@]3(CCN1CC1CC1)[C@H]2O5
Completion: 1.35

Prompt: Recorded Ratio Ki for O=C(Nc1ccccc1)[C@@H]1N(Cc2ccccc2)[C@@]23CC[C@]1(O)[C@@H]1Oc4c(O)ccc5c4[C@@]12CCN(CC1CC1)[C@@H]3C5 , please?
Completion: 0.79

Prompt: Entry O=C(C[C@H]1N(CC2CC2)[C@@]23CC[C@]1(O)[C@@H]1Oc4c(O)ccc5c4[C@]12CCN(CC1CC1)[C@@H]3C5)Nc1ccccc1 has what Ratio Ki?
Completion: 1.48

Prompt: I'd like to know its Ratio Ki. The molecule in question is O=C(Nc1ccccc1)[C@H]1N(CC2CC2)[C@@]23CC[C@]1(O)[C@@H]1Oc4c(O)ccc5c4[C@@]12CCN(CC1CC1)[C@@H]3C5
Completion: 0.99

Prompt: Given the molecule O=C(C[C@H]1N[C@@]23CC[C@]1(O)[C@@H]1Oc4c(O)ccc5c4[C@]12CCN(CC1CC1)[C@@H]3C5)NCc1ccccc1 , what is its reported Ratio Ki?
Completion: 1.16

Prompt: I would be grateful if you could share the reported Ratio Ki for CC(=O)N1[C@@H](CC(=O)Nc2ccccc2)[C@]2(O)CC[C@]13[C@H]1Cc4ccc(O)c5c4[C@]3(CCN1CC1CC1)[C@H]2O5 .
Completion: 0.12
